// reported pIC50 per item
Tested on: pancreatic cell line BxPC3
Protocol Summary: dose-effect relationship of drugs and mixtures, crystal violet assay, Median-Effect / Combination index
Assay type: cell-based
Stated Conditions: Homo sapiens, BXPC-3, 48 h, read-out: Median-Effect Plot parameter IC50
Procedure: The potentiation of cytotoxic effect of compound 2 in combination with several cytostatics was evaluated. The dose-effect relationship of individual drugs and mixtures of compound 2 with paclitaxel, cis Pt (cis-platin), doxorubicin and fluorouracil was determined on human mammary gland cancer cell line MDA-MB-231 and pancreatic cell line BxPC3 by means of crystal violet assay. […]
// pIC50: -log10(molar conc.)

Answer with reported pIC50 of O=c1[nH]cc(F)c(=O)[nH]1 [Fluorouracil, fluorouracil]
4.32

Answer with reported pIC50 of CC(=O)N(O)CCCCCNC(=O)CCC(=O)N(O)CCCCCNC(=O)CCC(=O)N(O)CCCCCN(CCCCCCCCCC[P+](c1ccccc1)(c1ccccc1)c1ccccc1)CCCCCCCCCC[P+](c1ccccc1)(c1ccccc1)c1ccccc1.[Cl-].[Cl-] [Compound 2]
5.35
